- PROTOCOL_DESCRIPTION: Toxicity liver stage against HepG2, at 10uM
- Assay type: cell-based
- Parameters: test concentration 10 uM, cell line HepG2-A16-CD81EGFP
- CONDITION_LABEL: human, HepG2-A16-CD81EGFP cells; read-out: INHIBITION
Items are presented alongside their recorded cytotoxicity at 10 µM.
Write the answer as a number in %, unit excluded.

Incoming: Quick one: cytotoxicity at 10 µM of CC(C)[C@@H]1CN(C(=O)NCc2ccco2)C[C@H]1N(C)C ?
Outgoing: 12.7

Incoming: Now consider Cc1nc2c(c(C)c1CC(=O)Nc1ccccc1F)c(=O)[nH]n2C and answer again.
Outgoing: 0.177

Incoming: Now consider CN(C)c1ccc(C(=O)Nc2cn[nH]c2)cc1 and answer again.
Outgoing: -0.279

Incoming: Now consider CC(C)NC(=O)c1cc2c(c3ccccc3n2C)n1C(=O)N(C)C and answer again.
Outgoing: -79.4

Incoming: Now consider O=C(c1c(O)cc(F)cc1F)N1CCc2cnccc21 and answer again.
Outgoing: -4.18

Others:
Incoming: Quick one: cytotoxicity at 10 µM of CC(C)(C)NCc1ccc(OCc2ccc3c(c2)OCCO3)cc1 ?
Outgoing: 1.99

Incoming: Now consider CCOc1ccc(CCC(=O)N2CC[C@H]3C(=O)NCCO[C@H]3C2)cc1 and answer again.
Outgoing: 12.1

Incoming: Now consider CC(C)CNC(=O)c1ccc(NC(=O)NC(C)C)cc1Cl and answer again.
Outgoing: 5.92

====

- PROTOCOL_DESCRIPTION: Toxicity liver stage against HepG2, at 10uM
- Format: cell-based
- Parameters: test concentration 10 uM, cell line HepG2-A16-CD81EGFP
- CONDITION_LABEL: human, HepG2-A16-CD81EGFP cells; read-out: INHIBITION
MEASURED_ATTRIBUTE: cytotoxicity at 10 µM (%)
Write the answer as a number in %, unit excluded.

These recorded examples may help you get a feel for the data.
Incoming: Quick one: cytotoxicity at 10 µM of COCCCNC(=O)CCn1nc(C)c2ccccc21 ?
Outgoing: 9.87

Incoming: Now consider Cc1cc(=O)c(C(=O)Nc2cccc(CCN3CCCC3)c2)c[nH]1 and answer again.
Outgoing: 7.49

Incoming: Now consider COc1ccc(CNC[C@H]2COCc3nc4cccnc4n32)cc1 and answer again.
Outgoing: -0.61

Please look at the following compound next.
Incoming: Quick one: cytotoxicity at 10 µM of Cc1cccc(C(C(=O)N(C)Cc2ccon2)N(C)C)c1 (centres undefined) ?
Outgoing: 5.4

====

- PROTOCOL_DESCRIPTION: Toxicity liver stage against HepG2, at 10uM
- Assay type: cell-based
- Design: test concentration 10 uM, cell line HepG2-A16-CD81EGFP
- CONDITION_LABEL: human, HepG2-A16-CD81EGFP cells; read-out: INHIBITION
Items are presented alongside their recorded cytotoxicity at 10 µM.

These recorded examples may help you get a feel for the data.
Incoming: Quick one: cytotoxicity at 10 µM of CC(C)c1cc(N2CCC(NS(C)(=O)=O)C2)nc(C(C)C)n1 (stereo not drawn) ?
Outgoing: 4.34%

Incoming: Now consider CC(=O)N[C@@H]1CN(C(=O)CC2CCOCC2)C[C@H]1O and answer again.
Outgoing: -3.3%

Incoming: Now consider COCCN1CCCC(c2nccnc2Nc2nc(C)cs2)C1 (stereo not drawn) and answer again.
Outgoing: -7.16%

Incoming: Now consider COc1ccc2[nH]c(C[C@@H]3C[C@@H](C(C)C)[C@H](CN(C)C)C=C3C)nc2c1 and answer again.
Outgoing: -0.626%

Others:
Incoming: Quick one: cytotoxicity at 10 µM of Cn1cc(CNc2cnn(CCO)c2)c(-c2ccncc2)n1 ?
Outgoing: 1.56%

Incoming: Now consider CN(C)CC(=O)NC1CC(=O)N(CCc2ccccc2)C1 (stereo not drawn) and answer again.
Outgoing: -1.73%

Incoming: Now consider CN1CCC(Oc2ccc(NC(=O)c3ccccc3Br)cc2)CC1 and answer again.
Outgoing: -15.6%

Incoming: Now consider Cc1ccc(C2CN(C(=O)c3c(C)cc(C)[nH]c3=O)CCO2)c(C)c1 (stereo not drawn) and answer again.
Outgoing: -19.8%
